tested on: A549 spheroids; experiment: Spheroid viability assay (CellTiter-Glo 3D), A549 spheroids; format: cell-based; settings: human tumors spheroids, 72 h, 100 pM to 50 μM
experimental endpoint: IC50 (µM)
Value expressed in µM; do not type the unit.

A549 spheroids data for N.N.[Cl][Pt][Cl] [Cisplatin, reference compound] ; its IC50: 49.8

====

Test system: RAJI
Assay: Cytotoxic MTS assay, Raji
Assay type: cell-based
Details: human leukemia cell line, 72 h, median of five assays
Description: The cancer cell lines used in the cytotoxic assays were acquired from the American Tissue Culture Collection (ATCC) (Manassas, VA, USA) and maintained as described previously. The MRC-5 and BJ human fibroblasts were used as non-tumoral control cells. […] The in vitro cytotoxicity of compounds (1–7) was assessed using the standard 3-(4,5-dimethyl-thiazol-2yl)-5-(3-carboxymethoxyphenyl)-2-(sulfophenyl)-2H-tetrazolium (MTS). […]
experimental endpoint: IC50 (µM)
Value expressed in µM; do not type the unit.

# IC50 (molecule: N.N.[Cl][Pt][Cl] [Cisplatin, reference compound] ) is 0.68

====

test system: BJ LD; assay: Cytotoxic MTS assay, BJ LD fibroblasts (doxorubicin-resistant); format: cell-based; details: Fibroblast, doxorubicin-resistant human fibroblasts, 72 h, median of five assays
experimental endpoint: IC50 (µM)
Value expressed in µM; do not type the unit.

# IC50 (molecule: C=C1C(=O)C23CCC(C(=C)C)C(C)(CCC(=O)O)C2CCC1C3 (stereo not drawn) ) is 7.04

# IC50 (molecule: C=C1C(=O)C23CCC(C(=C)C)C(C)(CCC(=O)OC)C2CCC1C3 (stereo not drawn) ) is 7.42

# IC50 (molecule: C=C1C(=O)C23CCC(C(=C)C)C(C)(CCC(=O)OC(C)=O)C2CCC1C3 (stereo not drawn) [Compound 7, Caracasine-Acetic Anhydride] ) is 7.63

# IC50 (molecule: C=C1C(=O)C23CCC(C(=C)C)C(C)(CCC(=O)OC4CCCCC4)C2CCC1C3 (stereo not drawn) ) is 6.5

====

test system: CCRF-CEM; assay: Cytotoxic MTS assay, CCRF-CEM; assay type: cell-based; conditions: human leukemia cell line, 72 h, median of five assays
experimental endpoint: pIC50
pIC50 is defined as minus the log10 of a concentration measured in mol/L.

# pIC50 (compound: N.N.[Cl][Pt][Cl] [Cisplatin, reference compound] ) is 5.34

====

system: HCT116 par spheroids; assay: Spheroid viability assay (CellTiter-Glo 3D), HCT116 parental spheroids; assay type: cell-based; settings: human tumors spheroids, 72 h, 100 pM to 50 μM
experimental endpoint: pIC50
pIC50 is defined as minus the log10 of a concentration measured in mol/L.

# pIC50 (compound: N.N.[Cl][Pt][Cl] [Cisplatin, reference compound] ) is 4.80
